tested on: wild-type P. aeruginosa PAO1; assay: microbe, parasite or virus in culture; format: cell-based, Pseudomonas aeruginosa; settings: PAO1; antibiotic with dUSTBβP 3 at 8 μg/mL
OUTCOME_MEASURE: MICcombo

{"columns": ["SMILES", "MEASURED_RESULT"],
 "data": [
  ["C=C[C@]1(C)C[C@@H](OC(=O)CO)[C@]2(C)[C@H](C)CC[C@]3(CCC(=O)[C@H]32)[C@@H](C)[C@@H]1O", "256 µg/mL"],
  ["CC(C)(O/N=C(\\C(=O)N[C@@H]1C(=O)N2C(C(=O)[O-])=C(C[n+]3ccccc3)CS[C@H]12)c1csc(N)n1)C(=O)O", "2 µg/mL"],
  ["CCN1CCN(C(=O)N[C@@H](C(=O)N[C@@H]2C(=O)N3[C@@H]2SC(C)(C)[C@@H]3C(=O)O)c2ccccc2)C(=O)C1=O", "4 µg/mL"]
]}

----------
Below, each of the molecules is paired with its reported MIC value.
test system: MDR P. aeruginosa clinical isolates; experiment: Resistance phenotype (MICs of antibiotics) of MDR clinical isolates; format: cell-based, Pseudomonas aeruginosa; conditions: Pseudomonas aeruginosa, 91433; read-out: MIC

{"columns": ["SMILES", "MIC"],
 "data": [
  ["CN(C)c1ccc(O)c2c1C[C@H]1C[C@H]3[C@H](N(C)C)C(O)=C(C(N)=O)C(=O)[C@@]3(O)C(O)=C1C2=O", "16 µg/mL"],
  ["CN(C)c1cc(CNCC(C)(C)C)c(O)c2c1C[C@H]1C[C@H]3[C@H](N(C)C)C(O)=C(C(N)=O)C(=O)[C@@]3(O)C(O)=C1C2=O", "128 µg/mL"],
  ["C[C@@H](O)[C@H]1C(=O)N2C(C(=O)O)=C(S[C@@H]3CN[C@H](C(=O)Nc4cccc(C(=O)O)c4)C3)[C@H](C)[C@H]12", "> 32 µg/mL"],
  ["NCC[C@H](O)C(=O)N[C@@H]1C[C@H](N)[C@@H](O[C@H]2O[C@H](CN)[C@@H](O)[C@H](O)[C@H]2O)[C@H](O)[C@H]1O[C@H]1O[C@H](CO)[C@@H](O)[C@H](N)[C@H]1O", "> 32 µg/mL"],
  ["O=C(N[C@H](CO)[C@H](O)c1ccc([N+](=O)[O-])cc1)C(Cl)Cl", "8 µg/mL"],
  ["CN(C)[C@@H]1C(O)=C(C(N)=O)C(=O)[C@@]2(O)C(O)=C3C(=O)c4c(O)c(NC(=O)CN5CCCC5)cc(F)c4C[C@H]3C[C@@H]12", "16 µg/mL"]
]}

----------
Below, each of the compounds is paired with its reported MICcombo value.
system: wild-type P. aeruginosa PAO1; experiment: microbe, parasite or virus in culture; assay type: cell-based, Pseudomonas aeruginosa; conditions: PAO1; antibiotic with dUSTBβP 3 at 8 μg/mL

{"columns": ["COMPOUND", "MICcombo, µg/mL"],
 "data": [
  ["CN[C@H](CC(C)C)C(=O)N[C@H]1C(=O)N[C@@H](CC(N)=O)C(=O)N[C@H]2C(=O)N[C@H]3C(=O)N[C@H](C(=O)N[C@H](C(=O)O)c4cc(O)cc(O)c4-c4cc3ccc4O)[C@H](O)c3ccc(c(Cl)c3)Oc3cc2cc(c3O[C@@H]2O[C@H](CO)[C@@H](O)[C@H](O)[C@H]2O[C@H]2C[C@](C)(N)[C@H](O)[C@H](C)O2)Oc2ccc(cc2Cl)[C@H]1O [Vancomycin]", 256],
  ["O=C(N[C@H](CO)[C@H](O)c1ccc([N+](=O)[O-])cc1)C(Cl)Cl [Chloramphenicol]", 2],
  ["CO[C@@H]1[C@@H](OC(N)=O)[C@@H](O)[C@H](Oc2ccc3c(O)c(NC(=O)c4ccc(O)c(CC=C(C)C)c4)c(=O)oc3c2C)OC1(C)C [Novobiocin]", 32],
  ["C[C@H]1c2cccc(O)c2C(=O)C2=C(O)[C@]3(O)C(=O)C(C(N)=O)=C(O)[C@@H](N(C)C)[C@@H]3[C@@H](O)[C@@H]21 [Doxycycline]", 0.5],
  ["COc1cc(Cc2cnc(N)nc2N)cc(OC)c1OC [Trimethoprim]", 32]
]}

----------
Below, each of the compounds is paired with its reported hemolysis at 45 min, 100 µM value.
assay: in vitro; format: cell-based; details: human

{"columns": ["COMPOUND", "hemolysis at 45 min, 100 µM / %"],
 "data": [
  ["CCCCCCCC(=O)NC(CCCNC(=N)N)CC(=O)NCCCN(CCCNC(=O)CC(CCCNC(=N)N)NC(=O)CCCCCCC)CC(=O)NC(CCCNC(=N)N)CC(N)=O (stereo not drawn)", 4.17],
  ["CCCCCCCC(=O)NC(CCCCN)CC(=O)NCCCN(CCCNC(=O)CC(CCCCN)NC(=O)CCCCCCC)CC(=O)NC(CCCCN)CC(N)=O (stereo not drawn)", 3.26],
  ["CCCCCCCC(=O)NC(CCCN)CC(=O)NCCCN(CCCNC(=O)CC(CCCN)NC(=O)CCCCCCC)CC(=O)NC(CCCN)CC(N)=O (stereo not drawn)", 3.35]
]}

----------
tested on: MDR P. aeruginosa clinical isolates; test: Resistance phenotype (MICs of antibiotics) of MDR clinical isolates; assay type: cell-based, Pseudomonas aeruginosa; conditions: Pseudomonas aeruginosa, 264-104354; read-out: MIC
hey, just use YES if measured MIC is less than 30 µg/mL, otherwise NO

{"columns": ["COMPOUND", "ASSIGNED_CLASS"],
 "data": [
  ["C[C@@H](O)[C@H]1C(=O)N2C(C(=O)O)=C(SCCN=CN)C[C@H]12 [IMI, imipenem]", "NO"],
  ["CO[C@@]1(NC(=O)Cc2cccs2)C(=O)N2C(C(=O)O)=C(COC(N)=O)CS[C@@H]21 [FOX, cefoxitin]", "NO"],
  ["CO/N=C(\\C(=O)N[C@@H]1C(=O)N2C(C(=O)[O-])=C(C[N+]3(C)CCCC3)CS[C@H]12)c1csc(N)n1 [CPM, cefepime]", "NO"],
  ["CN(C)c1cc(CNCC(C)(C)C)c(O)c2c1C[C@H]1C[C@H]3[C@H](N(C)C)C(O)=C(C(N)=O)C(=O)[C@@]3(O)C(O)=C1C2=O [OMC, omadacycline]", "NO"],
  ["CN(C)[C@@H]1C(O)=C(C(N)=O)C(=O)[C@@]2(O)C(O)=C3C(=O)c4c(O)c(NC(=O)CN5CCCC5)cc(F)c4C[C@H]3C[C@@H]12 [ERC, eravacycline]", "YES"],
  ["O=C(N[C@H](CO)[C@H](O)c1ccc([N+](=O)[O-])cc1)C(Cl)Cl [Chloramphenicol]", "NO"],
  ["C[C@H]1[C@H](NC(=O)/C(=N\\OC(C)(C)C(=O)O)c2csc(N)n2)C(=O)N1S(=O)(=O)O [Aztreonam]", "NO"],
  ["Cc1nnc(SCC2=C(C(=O)O)N3C(=O)[C@@H](NC(=O)Cn4cnnn4)[C@H]3SC2)s1 [CFZ, cefazolin]", "NO"],
  ["NCC[C@H](O)C(=O)N[C@@H]1C[C@H](N)[C@@H](O[C@H]2O[C@H](CN)[C@@H](O)[C@H](O)[C@H]2O)[C@H](O)[C@H]1O[C@H]1O[C@H](CO)[C@@H](O)[C@H](N)[C@H]1O [AMK, amikacin]", "YES"],
  ["CO/N=C(\\C(=O)N[C@@H]1C(=O)N2C(C(=O)O)=C(COC(C)=O)CS[C@H]12)c1csc(N)n1 [CTX, cefotaxime]", "NO"],
  ["CN(C)c1cc(NC(=O)CNC(C)(C)C)c(O)c2c1C[C@H]1C[C@H]3[C@H](N(C)C)C(O)=C(C(N)=O)C(=O)[C@@]3(O)C(O)=C1C2=O [TGC, tigecycline]", "NO"],
  ["CN(C)c1ccc(O)c2c1C[C@H]1C[C@H]3[C@H](N(C)C)C(O)=C(C(N)=O)C(=O)[C@@]3(O)C(O)=C1C2=O [Minocycline]", "NO"]
]}

----------
Below, each of the molecules is paired with its reported MIC value.
test system: MDR K. pneumoniae clinical isolates; test: Resistance phenotype (MICs of antibiotics) of MDR clinical isolates; format: cell-based, Klebsiella pneumoniae; details: Klebsiella pneumoniae, 113250; read-out: MIC

{"columns": ["MOLECULE", "MIC"],
 "data": [
  ["C[C@H]1[C@H](NC(=O)/C(=N\\OC(C)(C)C(=O)O)c2csc(N)n2)C(=O)N1S(=O)(=O)O [Aztreonam]", "≤ 0.12 µg/mL"],
  ["COc1c(N2C[C@@H]3CCCN[C@@H]3C2)c(F)cc2c(=O)c(C(=O)O)cn(C3CC3)c12 [Moxifloxacin]", "≤ 0.06 µg/mL"],
  ["NCC[C@H](O)C(=O)N[C@@H]1C[C@H](N)[C@@H](O[C@H]2O[C@H](CN)[C@@H](O)[C@H](O)[C@H]2O)[C@H](O)[C@H]1O[C@H]1O[C@H](CO)[C@@H](O)[C@H](N)[C@H]1O [AMK, amikacin]", "≤ 1 µg/mL"],
  ["CC(C)(O/N=C(\\C(=O)N[C@@H]1C(=O)N2C(C(=O)[O-])=C(C[n+]3ccccc3)CS[C@H]12)c1csc(N)n1)C(=O)O [Ceftazidime]", "0.5 µg/mL"],
  ["C[C@@H](O)[C@H]1C(=O)N2C(C(=O)O)=C(SCCN=CN)C[C@H]12 [IMI, imipenem]", "0.25 µg/mL"],
  ["CN(C)c1cc(CNCC(C)(C)C)c(O)c2c1C[C@H]1C[C@H]3[C@H](N(C)C)C(O)=C(C(N)=O)C(=O)[C@@]3(O)C(O)=C1C2=O [OMC, omadacycline]", "2 µg/mL"],
  ["CN(C)c1ccc(O)c2c1C[C@H]1C[C@H]3[C@H](N(C)C)C(O)=C(C(N)=O)C(=O)[C@@]3(O)C(O)=C1C2=O [Minocycline]", "2 µg/mL"],
  ["CO[C@@]1(NC(=O)Cc2cccs2)C(=O)N2C(C(=O)O)=C(COC(N)=O)CS[C@@H]21 [FOX, cefoxitin]", "1 µg/mL"],
  ["CN(C)[C@@H]1C(O)=C(C(N)=O)C(=O)[C@@]2(O)C(O)=C3C(=O)c4c(O)c(NC(=O)CN5CCCC5)cc(F)c4C[C@H]3C[C@@H]12 [ERC, eravacycline]", "1 µg/mL"],
  ["C[C@H]1c2cccc(O)c2C(=O)C2=C(O)[C@]3(O)C(=O)C(C(N)=O)=C(O)[C@@H](N(C)C)[C@@H]3[C@@H](O)[C@@H]21 [Doxycycline]", "2 µg/mL"],
  ["C[C@@H](O)[C@H]1C(=O)N2C(C(=O)O)=C(S[C@@H]3CN[C@H](C(=O)N(C)C)C3)[C@H](C)[C@H]12 [MER, meropenem]", "≤ 0.03 µg/mL"],
  ["CNC(C)C1CCC(N)C(OC2C(N)CC(N)C(OC3OCC(C)(O)C(NC)C3O)C2O)O1 (stereo not shown) [Gentamicin]", "≤ 0.5 µg/mL"],
  ["CO/N=C(\\C(=O)N[C@@H]1C(=O)N2C(C(=O)[O-])=C(C[N+]3(C)CCCC3)CS[C@H]12)c1csc(N)n1 [CPM, cefepime]", "1 µg/mL"]
]}

Data origin, for the record: paper PMC8733726
